Test: Cytotoxicity in uninfected HEp-2 cells (MTT), same assay
Type: cell-based
Conditions: human, hep-2 cells, solvent water, 5 day assay, drug replenished daily
resultType: CC50 at 120 h (µM)
Give bare numbers, in µM.

Find the measured CC50 at 120 h of `NC(=O)c1ncn([C@@H]2O[C@H](CO)[C@@H](O)[C@H]2O)n1` and report it.
40

---

Assay: Cytotoxicity in uninfected HEp-2 cells (MTT), same assay
Format: cell-based
Details: human, hep-2 cells, solvent DMSO, 6 day assay, drug added on day 1, extrapolated
resultType: CC50 at 120 h (µM)
One number for each entry, in µM.

Find the measured CC50 at 120 h of CCCCN1C[C@H](O)[C@@H](O)[C@H](O)[C@H]1CO [Ex. 6, 1,5-(Butylimino) -1,5-dideoxy-D-glucitol] and report it.
365
